Ref: patent US20250034216A1

Molecular target: PTGR1_C239 (Homo sapiens)
Construct: endogenous in cells; host or cells: 22Rv1
Sequence (Q14914 whole entry): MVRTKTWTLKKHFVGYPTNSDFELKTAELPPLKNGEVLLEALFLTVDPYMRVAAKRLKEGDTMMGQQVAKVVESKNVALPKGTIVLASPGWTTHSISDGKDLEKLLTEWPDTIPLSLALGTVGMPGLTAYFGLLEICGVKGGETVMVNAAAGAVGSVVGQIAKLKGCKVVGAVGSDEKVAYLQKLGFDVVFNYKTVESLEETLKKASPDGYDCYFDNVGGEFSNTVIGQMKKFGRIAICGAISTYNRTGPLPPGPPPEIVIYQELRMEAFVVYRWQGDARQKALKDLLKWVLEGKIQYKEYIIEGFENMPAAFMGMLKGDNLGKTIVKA
Test: IA-DTB cysteine engagement
Format: binding
Details: 22Rv1 cells, 20 μM probe, 1 h, relative to DMSO
# key: entry, value: % engagement PTGR1_C239

Here are 3 compounds together with their reported answers.
### Prompt Given `C=CC(=O)N1C[C@H](c2ccc(Br)cc2)[C@@H]1C(=O)Nc1cccc2cccnc12` , respond with its % engagement PTGR1_C239.
### Response 79%

### Prompt For the compound C=CC(=O)N1C[C@H](c2ccc(Br)cc2)[C@H]1C(=O)Nc1cccc2cccnc12 [MY-3B] , give its measured % engagement PTGR1_C239 value.
### Response −16.5%

### Prompt Quick one: give measured % engagement PTGR1_C239 for `C=CC(=O)N1C[C@@H](c2ccc(Br)cc2)[C@H]1C(=O)Nc1cccc2cccnc12`
### Response 75%

***
### Prompt Dear colleague, please send me the reported % engagement PTGR1_C239 for C=CC(=O)N1C[C@H](c2ccc(Br)cc2)[C@H]1C(=O)Nc1cccc2cccnc12 [MY-3A] when you can.
### Response −4%
